# ASSAY INFO: Cytotoxicity against human BEAS-2B cells assessed as reduction in cell viability measured after 24 hrs by MTT assay
# Format: toxicity, cell-based
RECORDED METRIC: CC50 at 24 h (µM)
Give bare numbers, in µM.

Illustrative cases are given below, each with its answer.
FC(F)(F)c1ccc(/C=C/c2nc(Cn3ccc4cc(-c5cccc(Br)c5)ccc43)co2)cc1 | 3.03
Fc1cccc(NCc2coc(/C=C/c3ccc(C(F)(F)F)cc3)n2)c1 | 16.9
FC(F)(F)c1ccc(/C=C/c2nc(CNc3ccccc3Br)co2)cc1 | 12.3
FC(F)(F)c1ccc(/C=C/c2nc(CNc3ccccc3Cl)co2)cc1 | 7.33
Fc1ccccc1-c1ccc2c(ccn2Cc2coc(/C=C/c3ccc(C(F)(F)F)cc3)n2)c1 | 15.2
FC(F)(F)c1ccc(/C=C/c2nc(Cn3ccc4cc(-c5ccccc5)ccc43)co2)cc1 | 21.2
FC(F)(F)c1ccc(/C=C/c2nc(CNc3cccc(Cl)c3)co2)cc1 | 9.19
FC(F)(F)c1ccc(/C=C/c2nc(COc3ccc(CCCCn4ccnn4)cc3)co2)cc1 [MUBRITINIB] | 6.42

Dear colleague, could you please provide CC50 at 24 h for the compounds listed below?
1. Cc1cccc(NCc2coc(/C=C/c3ccc(C(F)(F)F)cc3)n2)c1
2. FC(F)(F)c1ccc(/C=C/c2nc(CNc3ccc(Br)cc3)co2)cc1
3. Cc1ccc(NCc2coc(/C=C/c3ccc(C(F)(F)F)cc3)n2)cc1
4. Fc1ccc(NCc2coc(/C=C/c3ccc(C(F)(F)F)cc3)n2)cc1
5. FC(F)(F)c1ccc(/C=C/c2nc(Cn3ccc4cc(-c5ccc(Cl)cc5)ccc43)co2)cc1

1. 15.6
2. 15.4
3. 10.8
4. 16.6
5. 11.2

Dear colleague, could you please provide CC50 at 24 h for the compounds listed below?
1. Fc1cccc(-c2ccc3c(ccn3Cc3coc(/C=C/c4ccc(C(F)(F)F)cc4)n3)c2)c1
2. COc1ccccc1-c1ccc2c(ccn2Cc2coc(/C=C/c3ccc(C(F)(F)F)cc3)n2)c1
3. Cc1ccccc1NCc1coc(/C=C/c2ccc(C(F)(F)F)cc2)n1
4. COc1ccc(-c2ccc3c(ccn3Cc3coc(/C=C/c4ccc(C(F)(F)F)cc4)n3)c2)cc1
5. COc1cccc(-c2ccc3c(ccn3Cc3coc(/C=C/c4ccc(C(F)(F)F)cc4)n3)c2)c1
6. FC(F)(F)c1ccc(/C=C/c2nc(CNc3ccc(Cl)cc3)co2)cc1
7. Fc1ccccc1NCc1coc(/C=C/c2ccc(C(F)(F)F)cc2)n1

1: 10.6; 2: 30; 3: 13.2; 4: 12.7; 5: 15; 6: 19.5; 7: 3.57

meta.source: ChEMBL document CHEMBL5120832
